experiment: Plasma pharmacokinetics of TP-0903 and metabolites (LC-MS/MS, noncompartmental analysis); format: in vivo, human; settings: human, plasma, oral, 25 mg, TP-0903 dose 25mg, Day 1 of course 1, plasma, median (range)

# smiles.text, unit.info, Tmax
data = [
    ("CN1CCN(Cc2ccc(Nc3ncc(Cl)c(Nc4ccccc4S(=O)(=O)N(C)C)n3)cc2)CC1.O=C(O)C(O)C(O)C(=O)O.O=C(O)C(O)C(O)C(=O)O", "h", 2.8),
]

* * *

assay: Plasma pharmacokinetics of TP-0903 and metabolites (LC-MS/MS, noncompartmental analysis); type: in vivo, human; conditions: human, plasma, oral, 37 mg, TP-0903 dose 37 mg, Day 10 of course 1, plasma, median (range)
measure: Tmax (h)

# compound, measured.number
records = [
    ("CN1CCN(Cc2ccc(Nc3ncc(Cl)c(Nc4ccccc4S(=O)(=O)N(C)C)n3)cc2)CC1.O=C(O)C(O)C(O)C(=O)O.O=C(O)C(O)C(O)C(=O)O [TP-0903]", 3.9),
]

* * *

test: Plasma pharmacokinetics of TP-0903 and metabolites (LC-MS/MS, noncompartmental analysis); type: in vivo, human; conditions: human, plasma, oral, TP-0903 dose 37 mg, Day 1 of course 1, plasma, median (range); read-out: C24h trough

# smiles.text, concentration at 24 h (ng/mL)
records = [
    ("CN1CCN(Cc2ccc(Nc3ncc(Cl)c(Nc4ccccc4S(=O)(=O)N(C)C)n3)cc2)CC1.O=C(O)C(O)C(O)C(=O)O.O=C(O)C(O)C(O)C(=O)O", 0.7),
]

* * *

experiment: Plasma pharmacokinetics of TP-0903 and metabolites (LC-MS/MS, noncompartmental analysis); format: in vivo, human; conditions: human, plasma, oral, TP-0903 dose 37 mg, Day 10 of course 1, plasma, median (range); read-out: C24h trough
measure: concentration at 24 h (ng/mL)

# smiles.text, measured.number
measured = [
    ("CN1CCN(Cc2ccc(Nc3ncc(Cl)c(Nc4ccccc4S(=O)(=O)N(C)C)n3)cc2)CC1.O=C(O)C(O)C(O)C(=O)O.O=C(O)C(O)C(O)C(=O)O", 5.8),
]

* * *

assay: Plasma pharmacokinetics of TP-0903 and metabolites (LC-MS/MS, noncompartmental analysis); type: in vivo, human; conditions: human, plasma, oral, 37 mg, TP-0903 dose 37 mg, Day 1 of course 1, plasma, median (range)
measure: Tmax (h)

# molecule, measure, measured.number
rows = [
    ("CN1CCN(Cc2ccc(Nc3ncc(Cl)c(Nc4ccccc4S(=O)(=O)N(C)C)n3)cc2)CC1.O=C(O)C(O)C(O)C(=O)O.O=C(O)C(O)C(O)C(=O)O [TP-0903]", "Tmax", 2.1),
]

* * *

test: Plasma pharmacokinetics of TP-0903 and metabolites (LC-MS/MS, noncompartmental analysis); type: in vivo, human; conditions: human, plasma, oral, 25 mg, TP-0903 dose 25mg, Day 10 of course 1, plasma, median (range)

# compound, Cmax (ng/mL)
data = [
    ("CN1CCN(Cc2ccc(Nc3ncc(Cl)c(Nc4ccccc4S(=O)(=O)N(C)C)n3)cc2)CC1.O=C(O)C(O)C(O)C(=O)O.O=C(O)C(O)C(O)C(=O)O [TP-0903]", 14),
]
